Biological target: EGFR del19 (Homo sapiens (Human), UniProt P00533, DEL746-750)
Sequence (P00533 other isoform, or with tags, fused parts or gaps del 1-668/del 746-750 limits assumed): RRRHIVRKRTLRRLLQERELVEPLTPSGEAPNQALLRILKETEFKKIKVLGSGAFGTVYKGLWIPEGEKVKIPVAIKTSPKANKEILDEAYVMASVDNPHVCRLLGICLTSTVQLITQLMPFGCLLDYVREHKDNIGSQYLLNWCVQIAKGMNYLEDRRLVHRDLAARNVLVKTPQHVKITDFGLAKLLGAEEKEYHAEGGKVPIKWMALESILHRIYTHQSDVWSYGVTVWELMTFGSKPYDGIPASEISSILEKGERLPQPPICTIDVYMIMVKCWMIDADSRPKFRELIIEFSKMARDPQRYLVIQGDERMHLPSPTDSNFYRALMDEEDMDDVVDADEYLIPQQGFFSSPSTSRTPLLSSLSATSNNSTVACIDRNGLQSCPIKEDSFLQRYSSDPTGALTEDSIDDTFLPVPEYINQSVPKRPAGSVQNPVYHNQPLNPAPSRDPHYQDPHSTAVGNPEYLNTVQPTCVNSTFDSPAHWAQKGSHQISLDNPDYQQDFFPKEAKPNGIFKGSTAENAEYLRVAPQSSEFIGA
Assay: HTRF inhibitory activity against EGFR mutant enzyme (EGFR del19)
Conditions: recombinant enzyme, 37° C. for 2 hours
quantity-name: IC50

C=CC(=O)Nc1cc(Nc2ncc(Cl)c(Nc3cccc4c3N(S(C)(=O)=O)CCC4)n2)c(OC)cc1N1CCC(N2CCN(C)CC2)CC1 [Example 50]: < 1 nM
CC#CC(=O)Nc1cc(Nc2ncc(Cl)c(Nc3cccc4c3N(C(C)=O)CC4)n2)c(OC)cc1N(C)CCN(C)C [Example 97]: 15 nM
COc1cc(N(C)CCN(C)C)c(NC(=O)/C=C/CN(C)C)cc1Nc1ncc(Cl)c(Nc2ccccc2NS(C)(=O)=O)n1 [Example 28]: < 1 nM
C=CC(=O)Nc1cc(Nc2ncc(Cl)c(Nc3cccc4c3N(C(=O)CC)CCC4)n2)c(OC)cc1N(C)CCN(C)C [Example 94]: 4 nM
C=CC(=O)Nc1cc(Nc2ncc(Cl)c(Nc3ccccc3NS(=O)(=O)c3ccccc3)n2)c(OC)cc1N(C)CCN(C)C [Example 2]: < 1 nM

Please give the measured IC50 for this compound: CC#CC(=O)Nc1cc(Nc2ncc(Cl)c(Nc3ccc(C)cc3N(C)S(C)(=O)=O)n2)c(OC)cc1N(C)CCN(C)C [Example 98]
< 1 nM

Try this compound too: C=CC(=O)Nc1cc(Nc2ncc(Cl)c(Nc3ccc(C)cc3N(C)S(C)(=O)=O)n2)c(OC)cc1N(C)CCN1CCCC1 [Example 76]
< 1 nM

====

Target: EGFR del19 (Homo sapiens (Human), UniProt P00533, DEL746-750)
Assay: HTRF inhibitory activity against EGFR mutant enzyme (EGFR del19)
Assay type: biochemical
Conditions: recombinant enzyme, 37° C. for 2 hours
quantity-name: IC50 (nM)

(P) C=CC(=O)Nc1cc(Nc2nccc(Nc3ccccc3NS(=O)(=O)c3ccccc3)n2)c(OC)cc1N(C)CCN(C)C
(Q) C=CC(=O)Nc1cc(Nc2nccc(Nc3cccc4c3N(C(C)=O)CC4)n2)c(OC)cc1N(C)CCN(C)C
Please compare: P and Q . Report which one has the smaller IC50 value. Return value: the label identifying the chosen record.
Q
(Q: 3 nM, P: 7 nM)

====

Molecular target: EGFR A763_Y764insFHEA (Homo sapiens (Human), UniProt P00533, INS763FHEA)
Sequence (P00533 other isoform, or with tags, fused parts or gaps del 1-694/ins FHEA behind 763 limits assumed): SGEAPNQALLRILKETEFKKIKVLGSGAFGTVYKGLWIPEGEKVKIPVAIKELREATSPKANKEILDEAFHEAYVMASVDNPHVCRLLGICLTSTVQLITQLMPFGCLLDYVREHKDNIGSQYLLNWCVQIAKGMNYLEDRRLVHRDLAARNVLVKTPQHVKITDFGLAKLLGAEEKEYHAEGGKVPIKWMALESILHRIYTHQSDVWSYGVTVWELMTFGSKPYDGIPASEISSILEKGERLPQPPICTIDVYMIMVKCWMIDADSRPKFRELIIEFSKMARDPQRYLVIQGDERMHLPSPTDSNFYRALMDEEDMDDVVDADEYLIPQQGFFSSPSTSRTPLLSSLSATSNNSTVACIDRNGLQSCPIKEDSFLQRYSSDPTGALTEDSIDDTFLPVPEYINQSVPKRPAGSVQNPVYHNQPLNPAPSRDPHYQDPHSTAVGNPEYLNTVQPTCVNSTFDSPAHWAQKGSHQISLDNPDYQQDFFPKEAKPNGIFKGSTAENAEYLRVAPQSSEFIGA
Experiment: HTRF inhibitory activity against EGFR mutant enzyme (EGFR A763_Y764insFHEA)
Conditions: recombinant enzyme, 37° C. for 2 hours
pIC50: −log10 of the molar value.
quantity-name: pIC50

Use these answered entries as a reference point.
C=CC(=O)Nc1cc(Nc2ncc(F)c(Nc3ccccc3NS(C)(=O)=O)n2)c(OC)cc1N(C)CCN(C)C [Example 11]: 9.00
C=CC(=O)Nc1cc(Nc2ncc(Cl)c(Nc3ccccc3N(C(C)C)S(C)(=O)=O)n2)c(OC)cc1N(C)CCN(C)C [Example 32]: 9.00
CC#CC(=O)Nc1cc(Nc2ncc(Cl)c(Nc3ccc(C)cc3N(C)S(C)(=O)=O)n2)c(OC)cc1N(C)CCN(C)C [Example 98]: 8.05
C=CC(=O)Nc1cc(Nc2ncc(Cl)c(Nc3ccccc3NS(C)(=O)=O)n2)c(OC)cc1N(C)CCNC(C)C [Example 24]: 8.52
C=CC(=O)Nc1cc(Nc2nccc(Nc3ccccc3NS(=O)(=O)c3ccccc3)n2)c(OC)cc1N(C)CCN(C)C [Example 6]: 7.70
C=CC(=O)Nc1cc(Nc2nccc(Nc3ccccc3NS(=O)(=O)CC)n2)c(OC)cc1N(C)CCN(C)C [Example 10]: 8.00
C=CC(=O)Nc1cc(Nc2ncc(F)c(Nc3cccc4c3N(C(C)=O)CC4)n2)c(OC)cc1N(C)CCN(C)C [Example 101]: 8.30

(A) C=CC(=O)Nc1cc(Nc2ncc(C)c(Nc3ccccc3NS(=O)(=O)CCC)n2)c(OC)cc1N(C)CCN(C)C [Example 18]
(B) C=CC(=O)Nc1cc(Nc2ncc(Cl)c(Nc3ccccc3NS(C)(=O)=O)n2)c(OC)cc1OCCN1CCCC1 [Example 22]
// which entry has the larger pIC50 value, A or B ? Return value: the label identifying the chosen record.
B
(B: 8.52, A: 8.15)

====

Target: HER2 A775_G776insYVMA (Homo sapiens (Human), UniProt P04626, INS775YVMA)
Sequence (P04626 other isoform, or with tags, fused parts or gaps del 1-675/ins YVMA behind 775 limits assumed): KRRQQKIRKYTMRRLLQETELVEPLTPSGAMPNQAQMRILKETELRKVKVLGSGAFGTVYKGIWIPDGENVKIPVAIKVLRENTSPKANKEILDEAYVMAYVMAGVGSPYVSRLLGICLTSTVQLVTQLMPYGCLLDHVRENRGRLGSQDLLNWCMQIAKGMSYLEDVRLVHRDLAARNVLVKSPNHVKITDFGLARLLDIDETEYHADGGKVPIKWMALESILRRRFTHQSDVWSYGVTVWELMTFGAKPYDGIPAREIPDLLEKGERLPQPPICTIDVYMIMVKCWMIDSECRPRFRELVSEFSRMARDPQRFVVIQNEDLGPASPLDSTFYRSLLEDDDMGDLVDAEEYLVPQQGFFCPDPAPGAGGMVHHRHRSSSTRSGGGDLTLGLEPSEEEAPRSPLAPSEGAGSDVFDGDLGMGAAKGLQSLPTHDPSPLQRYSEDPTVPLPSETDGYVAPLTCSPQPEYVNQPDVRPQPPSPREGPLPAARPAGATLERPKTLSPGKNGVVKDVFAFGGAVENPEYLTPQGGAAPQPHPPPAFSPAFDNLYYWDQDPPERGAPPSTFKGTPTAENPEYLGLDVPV
Assay: HTRF inhibitory activity against HER2 mutant enzyme
Conditions: recombinant enzyme, 37° C. for 2 hours
pIC50: −log10 of the molar value.
quantity-name: pIC50

C=CC(=O)Nc1cc(Nc2ncc(Cl)c(Nc3ccc(C)cc3N(C)S(C)(=O)=O)n2)c(OC)cc1N(C)CCN(C)C [Example 45]: 8.10
C=CC(=O)Nc1cc(Nc2ncc(C(=O)OC)c(Nc3cccc4c3N(S(C)(=O)=O)CCC4)n2)c(OC)cc1N(C)CCN(C)C [Example 51]: 7.52
C=CC(=O)Nc1cc(Nc2ncc(Cl)c(Nc3cccc4c3N(S(C)(=O)=O)CC4)n2)c(OC)cc1N(C)CCN1CCN(C)CC1 [Example 73]: 8.30
C=CC(=O)Nc1cc(Nc2ncc(Cl)c(Nc3cccc(C(C)C)c3N(C)S(C)(=O)=O)n2)c(OC)cc1N(C)CCN(C)C [Example 37]: 7.59

(1) CC#CC(=O)Nc1cc(Nc2ncc(Cl)c(Nc3cccc4c3N(C(C)=O)CC4)n2)c(OC)cc1N(C)CCN(C)C [Example 97]
(2) C=CC(=O)Nc1cc(Nc2ncc(Cl)c(Nc3ccccc3NS(=O)(=O)C(C)C)n2)c(OC)cc1N(C)CCN(C)C [Example 5]
(3) C=CC(=O)Nc1cc(Nc2ncc(Cl)c(Nc3cccc(C)c3NS(C)(=O)=O)n2)c(OC)cc1N(C)CCN(C)C [Example 36]
(4) C=CC(=O)Nc1cc(Nc2nccc(Nc3ccccc3NS(=O)(=O)c3ccc(C)cc3)n2)c(OC)cc1N(C)CCN(C)C [Example 9]
(5) C=CC(=O)Nc1cc(Nc2ncc(Cl)c(Nc3cccc4c3N(S(C)(=O)=O)CCC4)n2)c(OC)cc1N(C)CCNC [Example 48]
Order the 5 compounds from highest to lowest pIC50. Would you mind listing the labels in the order requested?
3, 5, 2, 1, 4

====

Target: HER2 A775_G776insYVMA (Homo sapiens (Human), UniProt P04626, INS775YVMA)
Experiment: HTRF inhibitory activity against HER2 mutant enzyme
Details: recombinant enzyme, 37° C. for 2 hours
Method: The activity of the compounds of the present invention against HER mutant enzymes was measured using the HTRF system purchased by Cisbio as follows. […] The enzyme reaction begins by first mixing component 1 and component 2 and then adding component 3 thereto. […] The measured values at 7 compound concentrations were analyzed using the Prism program (version 5.01, Graphpad Software, Inc.), and the IC50 (μM) values, which are measures of the compounds' inhibitory ability, were calculated.
pIC50: −log10 of the molar value.
quantity-name: pIC50

Use these answered entries as a reference point.
C=CC(=O)Nc1cc(Nc2ncc(Cl)c(Nc3ccc4nccnc4c3NS(C)(=O)=O)n2)c(OC)cc1N(C)CCN(C)C [Example 69]: 8.22
C=CC(=O)Nc1cc(Nc2ncc(F)c(Nc3ccccc3NS(C)(=O)=O)n2)c(OC)cc1N(C)CCN(C)C [Example 11]: 7.15
C=CC(=O)Nc1cc(Nc2ncc(Cl)c(Nc3cccc(CC)c3N(C)S(C)(=O)=O)n2)c(OC)cc1N(C)CCN(C)C [Example 41]: 8.05
C=CC(=O)Nc1cc(Nc2ncc(Cl)c(Nc3cccc(CC)c3NS(C)(=O)=O)n2)c(OC)cc1N(C)CCN(C)C [Example 40]: 8.40
C=CC(=O)Nc1cc(Nc2ncc(Cl)c(Nc3cccc(C)c3N(C)S(C)(=O)=O)n2)c(OC)cc1N(C)CCN(C)C [Example 38]: 7.85

(P) C=CC(=O)Nc1cc(Nc2ncc(Cl)c(Nc3ccccc3NS(C)(=O)=O)n2)c(OC)cc1OCCN1CCCC1 [Example 22]
(Q) C=CC(=O)Nc1cc(Nc2ncc(Cl)c(Nc3ccccc3N3CCCCS3(=O)=O)n2)c(OC)cc1N(C)CCN(C)C [Example 71]
Please compare: P and Q . Report which one has the smaller pIC50 value. Return value: the label identifying the chosen record.
Q
(Q: 7.21, P: 7.66)

(I) C=CC(=O)Nc1cc(Nc2ncc(C#N)c(Nc3cccc4c3N(C(C)=O)CC4)n2)c(OC)cc1N(C)CCN(C)C [Example 99]
(II) C=CC(=O)Nc1cc(Nc2ncc(Cl)c(Nc3ccccc3NS(=O)(=O)c3ccccc3)n2)c(OC)cc1N(C)CCN(C)C [Example 2]
Please compare: I and II . Report which one has the smaller pIC50 value. Return value: the label identifying the chosen record.
II

====

Target: HER2 A775_G776insYVMA (Homo sapiens (Human), UniProt P04626, INS775YVMA)
Experiment: HTRF inhibitory activity against HER2 mutant enzyme
Settings: recombinant enzyme, 37° C. for 2 hours
pIC50: −log10 of the molar value.
quantity-name: pIC50

Use these answered entries as a reference point.
C=CC(=O)Nc1cc(Nc2ncc(C(=O)OC(C)C)c(Nc3cccc4c3N(S(C)(=O)=O)CC4)n2)c(OC)cc1N(C)CCN(C)C: 9.00
C=CC(=O)Nc1cc(Nc2ncc(Cl)c(Nc3cccc(Cl)c3N(C)S(C)(=O)=O)n2)c(OC)cc1N(C)CCN(C)C: 7.57
C=CC(=O)Nc1cc(Nc2ncc(Cl)c(Nc3ccccc3NS(=O)(=O)CCC)n2)c(OC)cc1N(C)CCN(C)C: 6.85
C=CC(=O)Nc1cc(Nc2ncc(Cl)c(Nc3ccccc3NS(C)(=O)=O)n2)c(OC)cc1N(C)CCN1CCCCC1: 7.52
C=CC(=O)Nc1cc(Nc2ncc(Cl)c(Nc3ccccc3NS(C)(=O)=O)n2)c(OC)cc1N(C)CCN1CCCC1: 7.34
C=CC(=O)Nc1cc(Nc2ncc(Cl)c(Nc3cccc(C)c3N(CC)S(C)(=O)=O)n2)c(OC)cc1N(C)CCN(C)C: 8.10
C=CC(=O)Nc1cc(Nc2ncc(Cl)c(Nc3ccccc3NS(=O)(=O)CC)n2)c(OC)cc1N(C)CCN(C)C: 7.43
C=CC(=O)Nc1cc(Nc2ncc(Cl)c(Nc3ccccc3N(CC)S(=O)(=O)CC)n2)c(OC)cc1N(C)CCN(C)C: 8.15
COc1cc(N2CCN(C)CC2)c(NC(=O)/C=C/CN(C)C)cc1Nc1ncc(Cl)c(Nc2ccccc2NS(C)(=O)=O)n1: 7.52
C=CC(=O)Nc1cc(Nc2nccc(Nc3ccccc3NS(=O)(=O)CC)n2)c(OC)cc1N(C)CCN(C)C: 6.36

(a) C=CC(=O)Nc1cc(Nc2ncc(C#N)c(Nc3cccc4c3N(S(C)(=O)=O)CC4)n2)c(OC)cc1N(C)CCN(C)C
(b) C=CC(=O)Nc1cc(Nc2ncc(Cl)c(Nc3cccc4c3N(C(C)=O)CCC4)n2)c(OC)cc1N(C)CCN(C)C
Please compare: a and b . Report which one has the smaller pIC50 value. Return value: the label identifying the chosen record.
b
(b: 7.27, a: 8.52)

(I) C=C(F)C(=O)Nc1cc(Nc2ncc(Cl)c(Nc3cccc4c3N(S(C)(=O)=O)CC4)n2)c(OC)cc1N(C)CCN(C)C
(II) CC#CC(=O)Nc1cc(Nc2ncc(Cl)c(Nc3ccc(C)cc3N(C)S(C)(=O)=O)n2)c(OC)cc1N(C)CCN(C)C
Please compare: I and II . Report which one has the smaller pIC50 value. Return value: the label identifying the chosen record.
II

(P) C=CC(=O)Nc1cc(Nc2ncc(Cl)c(Nc3ccccc3NS(C)(=O)=O)n2)c(OC)cc1N(C)CCNC
(Q) C=CC(=O)Nc1cc(Nc2ncc(Cl)c(Nc3cccc4c3N(S(C)(=O)=O)CC4)n2)c(OC)cc1N(C)CCN1CCCCC1
// which entry has the larger pIC50 value, P or Q ? Return value: the label identifying the chosen record.
Q

(a) C=CC(=O)Nc1cc(Nc2nccc(Nc3ccccc3NS(=O)(=O)c3ccccc3)n2)c(OC)cc1N(C)CCN(C)C
(b) C=CC(=O)Nc1cc(Nc2ncc(Cl)c(Nc3cccc4c3N(S(C)(=O)=O)CC4)n2)c(OC)cc1OCCN1CCCCC1
(c) C=CC(=O)Nc1cc(Nc2ncc(Cl)c(Nc3cccc(Cl)c3NS(C)(=O)=O)n2)c(OC)cc1N(C)CCN(C)C
(d) C=CC(=O)Nc1cc(Nc2ncc(C(=O)OC)c(Nc3cccc4c3N(S(C)(=O)=O)CC4)n2)c(OC)cc1N(C)CCN(C)C
(e) C=CC(=O)Nc1cc(Nc2ncc(Cl)c(Nc3ccccc3N(C)S(C)(=O)=O)n2)c(OC)cc1N(C)CCN(C)C
Order the 5 molecules from highest to lowest pIC50. Would you mind listing the labels in the order requested?
b, e, d, c, a

(P) C=CC(=O)Nc1cc(Nc2ncc(Cl)c(Nc3ccc(C)cc3N(C)S(C)(=O)=O)n2)c(OC)cc1N(C)CCN1CCC1
(Q) C=CC(=O)Nc1cc(Nc2ncc(Cl)c(Nc3ccccc3N(C(C)C)S(C)(=O)=O)n2)c(OC)cc1N(C)CCN(C)C
(R) C=CC(=O)Nc1cc(Nc2ncc(F)c(Nc3ccccc3NS(=O)(=O)c3ccc(C)cc3)n2)c(OC)cc1N(C)CCN(C)C
(S) C=CC(=O)Nc1cc(Nc2nccc(Nc3cccc4c3N(C(C)=O)CC4)n2)c(OC)cc1N(C)CCN(C)C
Put the molecules in ascending order of pIC50. Would you mind listing the labels in the order requested?
R, S, Q, P
(R: 5.92, S: 6.65, Q: 8.10, P: 8.70)
